B1: LINE1-full (parent)
chain: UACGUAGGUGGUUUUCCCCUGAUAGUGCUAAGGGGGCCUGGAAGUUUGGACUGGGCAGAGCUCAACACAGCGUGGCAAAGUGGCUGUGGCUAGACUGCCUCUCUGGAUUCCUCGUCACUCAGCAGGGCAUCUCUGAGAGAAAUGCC

- Variants of: B1
- experimentNotes: self-cleavage, relative activity (ratio to wild type); higher = more cleavage; in vitro, sequencing; the parent is a self-cleaving ribozyme
readoutKind: self-cleavage
Kindly provide the number alone.

// recorded self-cleavage for UACGUAGGUGGUUUUCCCCUGAUAGUGCUGAGGGGGCCUGGAAGUUUGGACUGGGCAGAGCUCAACACAGCGUGGCAAAGUGGCUGUGGCUAGACUGCCUCUCUGGAUUCCUCAUCACUCAGCAGGGCAUCUCUGAGAGAAAUGCC [A30G G114A] : 0.92

// recorded self-cleavage for UACGUAGGUGGGUUUCCCCUGAUAGUGCUAAGGGGGCCUGGAAGUUUGGACUGGGCAGAGCUCAACACAGCGUGGCAAAGUGGCUGUGGCUAGACUGCCUCUCUGGAUUCCUCGUCACUCAGCAGGGCAGCUCUGAGAGAAAUGCC [U12G U130G] : 0.77

// recorded self-cleavage for UACGUAGGUGGUUUUCCCCUGAUAGUGCUAAGGGGGCCUGGAAGUUUGGACUCGGCAGAGCUCAACACAGCGUGGCAAAGCGGCUGUGGCUAGACUGCCUCUCUGGAUUCCUCGUCACUCAGCAGGGCAUCUCUGAGAGAAAUGCC [G53C U81C] : 1.34

// recorded self-cleavage for UACGUAGGUGGUUUUCCCCUGAUAGUGCUAAAGGGGCCUGGAAGUUUGGACUGGGCAGAGCUCAUCACAGCGUGGCAAAGUGGCUGUGGCUAGACUGCCUCUCUGGAUUCCUCGUCACUCAGCAGGGCAUCUCUGAGAGAAAUGCC [G32A A65U] : 0.1

// recorded self-cleavage for UACGUAGGUGGUUUACCCCUGAUAGUGCUAAGGGGGCCUGGAAGUUUGGACUGGGCAGAGCUCAACACAGCGUGGCAAAGUGGCUGUGGCUAGACUGCCUCUCUGGAUUCCUCGACACUCAGCAGGGCAUCUCUGAGAGAAAUGCC [U15A U115A] : 1.07

// recorded self-cleavage for UACGUAGGUGGUUUUCCCCUGAUAGUGCUAAGGGGGCCUGGAAGUUUGGACUGGGCAGAGCUCAACGCAGCGUGGCAAAGUGGCUGUGGCUAGACUGCCUCUCUGGAUUCCUCGUCACUCAGCAGGGCAUAUCUGAGAGAAAUGCC [A67G C131A] : 0.72

// recorded self-cleavage for UACGUAGGUGGUUUUCCCCUGAUAGUGCUAAGGGGGCCUGGAAGUUUGGACUGGGCAGAGCUCAACACAGCAUGGCAUAGUGGCUGUGGCUAGACUGCCUCUCUGGAUUCCUCGUCACUCAGCAGGGCAUCUCUGAGAGAAAUGCC [G72A A78U] : 1.81

// recorded self-cleavage for UACGUAGGUGGUUUUCCCCUGAUAGUGCUAAGGGGGCCUGGAAGUUUGGACUGGGCAGAGCUCAACACAGCGUGGCAAAGUGGCUGUGGCUAGACUGCCUCUCUGGAUUCCUCGUCACUCGGCCGGGCAUCUCUGAGAGAAAUGCC [A121G A124C] : 0.32

// recorded self-cleavage for UACGUAGGUGGUUUUACCCUGAUAGUGCUAAGGGGGCCUGGAAGUCUGGACUGGGCAGAGCUCAACACAGCGUGGCAAAGUGGCUGUGGCUAGACUGCCUCUCUGGAUUCCUCGUCACUCAGCAGGGCAUCUCUGAGAGAAAUGCC [C16A U46C] : 0.91

// recorded self-cleavage for UACGUAGGUGGUUUUCCCCUGAUAAUGCUAAGGGGGCCUGGAAGUUUGGACUGGGCAGAGCUCAACACAGCGUGGCAAAGUGGCUGUGGCUAGACUGCCUCUCUGGAUACCUCGUCACUCAGCAGGGCAUCUCUGAGAGAAAUGCC [G25A U109A] : 1.72

// recorded self-cleavage for UACGUAGGUGGUUUUCCCCUGAUAGUGCUAAGGGGGCCUGGAAGUUUGGACUGGGCAGAGCUCAACACAGCGUGGCAAAGUGGCUGUGGCUAAAGUGCCUCUCUGGAUUCCUCGUCACUCAGCAGGGCAUCUCUGAGAGAAAUGCC [G93A C95G] : 0.04
